target: PDE1C; assay: pooled miR-30 sensor sort-seq; sequence = guide strand; settings: shRNA; further: reference of the scale not given here
measured-property: sensor-assay potency score (higher = more potent)
# output: bare number, no unit

Some sequences with known sensor-assay potency score (higher = more potent) results, for comparison:
macromolecule-sequence	tested-system	endpoint-value
AATTGTTTGACCAAAGACCGTA	PDE1C	0.319
TTTGAGTAAAAATCTCACGTTG	PDE1C	-0.294
TTTTCTTTGAATCATTTCCGAT	PDE1C	-1.12

Next sequence, please.
Query string: Look at this sequence and give its reported sensor-assay potency score (higher = more potent). TTGAGTAAAAATCTCACGTTGT
Result string: 0.531
